# credit: the supplement of paper PMC9116672

- measurement_protocol: duplex melting temperature (HRM, EvaGreen); higher = more stable duplex
- test_conditions: duplex concentration 1 µM; backbone: PS-PO (listed strand fully phosphorothioate, complement phosphodiester)
value_kind: duplex melting temperature (°C)
State the answer as a number, implicitly in °C.

Below, each entry is followed by its recorded duplex melting temperature result.
Record summary for CGGTGCTTTTGGTAGC : reported duplex melting temperature = 55.5

duplex melting temperature reported for this sequence ATAACTTACTCTCGCCT : 53.9

Others:
The sequence identified as GTGGTACAAATGCGACC registered its duplex melting temperature at 58.6

###

- measurement_protocol: duplex melting temperature (HRM, EvaGreen); higher = more stable duplex
- test_conditions: duplex concentration 15 µM; backbone: PS-PS (both strands fully phosphorothioate)
value_kind: duplex melting temperature

See these solved cases before continuing.
The sequence listed as ATAACTTACTCTCGCCT shows duplex melting temperature equal to 56.3 °C

The sequence listed as GAGCAGAAGGGGTTGT has a reported duplex melting temperature of 59.2 °C

In plain terms, AGCACGGTGGTACAACA has a documented duplex melting temperature of 59.1 °C

Entry CTACCAGCGGCGCCGTT — recorded duplex melting temperature = 72.2 °C

Just so you know, measured duplex melting temperature for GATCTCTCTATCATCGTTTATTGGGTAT came out at 60.6 °C

***
Form: sequence = AGGAGTGAATGAAATGG ; duplex melting temperature = 51.3 °C

Query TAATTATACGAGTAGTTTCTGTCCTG yields duplex melting temperature of 60.1 °C

According to the records, this sequence CTTTTGTGCGGGTAGC displays duplex melting temperature of 58.5 °C

Note to self: duplex melting temperature recorded for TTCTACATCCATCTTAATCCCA was 57.3 °C

// CTAAACTGTTATAGCCGG : duplex melting temperature value = 55.1 °C

Quick note, duplex melting temperature for ACGGGTCGTTCCGTG landed at 61.8 °C

###

- measurement_protocol: duplex formation entropy ΔS (Van't Hoff fit of HRM Tm); higher = smaller entropy loss on duplex formation
- test_conditions: temperature for dG: 50 °C; NaCl: 500 mM (unadjusted); backbone: PS-PS (both strands fully phosphorothioate)
# if value of duplex formation entropy ΔS reaches -200 cal/mol/K, tag t; if it stays below, tag f

Field: example entries. Status: answers known.
Say whether CGTGTGGATAATTAGCT shows duplex formation entropy ΔS of -200 cal/mol/K or more. f

Is duplex formation entropy ΔS for GAACTGCCACTACCAA at or above -200 cal/mol/K? t

Given the entry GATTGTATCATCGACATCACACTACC , answer whether its duplex formation entropy ΔS meets or surpasses -200 cal/mol/K. f

Next:
Check the entry ACTGTATCGCCCTA : does duplex formation entropy ΔS equal or exceed -200 cal/mol/K? t

Quick check, duplex formation entropy ΔS >= -200 cal/mol/K? TCTCGCGGTTCCATTA t

Reported duplex formation entropy ΔS at or above -200 cal/mol/K? AGCACGGTGGTACAACA t

Determine whether this sequence has duplex formation entropy ΔS no lower than -200 cal/mol/K: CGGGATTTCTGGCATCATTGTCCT f

Confirm if duplex formation entropy ΔS reported for the sequence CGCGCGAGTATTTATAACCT is -200 cal/mol/K or above. f

Determine whether this sequence has duplex formation entropy ΔS no lower than -200 cal/mol/K: GTGGTACAAATGCGACC f

Has AATGTCGAACAGCAATT a recorded duplex formation entropy ΔS greater than or equal to -200 cal/mol/K? t
